Recorded Cmax for the following compounds
# assay.overview: Plasma pharmacokinetics of ZST316 and L-257 after intraperitoneal ZST316 in MDA-MB-231 xenograft mice (HPLC-MS/MS)
# Assay type: in vivo, SCID mice
# condition.details: chronic ZST316 30 mg/Kg i.p. daily
property.label: Cmax (µM)

given.smiles	recorded.result
COCCNC(N)=NCCC[C@H](N)C(=O)O	6.89
COCCNC(N)=NCCC[C@H](N)C(=O)NS(C)(=O)=O	7.18
